# Activity per entry
test: Antioxidant activity assessed as ABTS radical scavenging activity at 50 ug/ml; assay type: functional; details: at 50 µg/mL
measure_name: Activity (%)

• COc1ccc(C2C(C#N)=C(N)OC(c3c[nH]c4ccccc34)=C2C#N)cc1OC (stereo not drawn) = 14.5
• N#CC1=C(N)OC(c2c[nH]c3ccccc23)=C(C#N)C1c1ccccc1 (stereo not drawn) = 14.4
• COc1ccc(C2C(C#N)=C(N)OC(c3c[nH]c4ccccc34)=C2C#N)cc1 (stereo not drawn) = 12.4
• Cc1ccccc1C1C(C#N)=C(N)OC(c2c[nH]c3ccccc23)=C1C#N (stereo not drawn) = 10.4
• N#CC1=C(N)OC(c2c[nH]c3ccccc23)=C(C#N)C1c1cc(Br)c2c(c1)OCO2 (stereo not drawn) = 5.7
• N#CC1=C(N)OC(c2c[nH]c3ccccc23)=C(C#N)C1c1cccc2ccccc12 (stereo not drawn) = 4.7
• Cc1ccc(C2C(C#N)=C(N)OC(c3c[nH]c4ccccc34)=C2C#N)cc1 (stereo not drawn) = 5.2
• N#CC1=C(N)OC(c2c[nH]c3ccccc23)=C(C#N)C1c1ccccc1Cl (stereo not drawn) = 8.5

---

test system: Staphylococcus aureus; assay: microbe, parasite or virus in culture; type: functional; settings: ATCC 9144, 24 h
Description: Antimicrobial activity against Staphylococcus aureus ATCC 9144 after 24 hrs by agar streak dilution method
# label = 1 if MIC < 20 µg/mL else 0

* N#CC1=C(N)OC(c2c[nH]c3ccccc23)=C(C#N)C1c1ccc(Br)cc1 (centres undefined) | 0
* N#CC1=C(N)OC(c2c[nH]c3ccccc23)=C(C#N)C1c1ccccc1F (centres undefined) | 0
* CN(C)c1ccc(C2C(C#N)=C(N)OC(c3c[nH]c4ccccc34)=C2C#N)cc1 (centres undefined) | 0
* N#CC1=C(N)OC(c2c[nH]c3ccccc23)=C(C#N)C1c1ccccc1 (centres undefined) | 1
* N#CC1=C(N)OC(c2c[nH]c3ccccc23)=C(C#N)C1c1ccccc1Cl (centres undefined) | 1
* N#CC1=C(N)OC(c2c[nH]c3ccccc23)=C(C#N)C1c1cc(Br)c2c(c1)OCO2 (centres undefined) | 0
* N#CC1=C(N)OC(c2c[nH]c3ccccc23)=C(C#N)C1c1ccc2ccccc2c1 (centres undefined) | 0
* O=C(O)c1cn(C2CC2)c2cc(N3CCNCC3)c(F)cc2c1=O | 1
* Cc1ccc(C2C(C#N)=C(N)OC(c3c[nH]c4ccccc34)=C2C#N)cc1 (centres undefined) | 0

---

# Activity per entry
test system: Radical scavenging activity; assay: Antioxidant activity assessed as DPPH radical scavenging activity at 400 ug/ml; type: functional; conditions: at 400 µg/mL
measure_name: Activity (%)

• N#CC1=C(N)OC(c2c[nH]c3ccccc23)=C(C#N)C1c1ccccc1Cl (stereo not drawn) = 45.7
• COc1ccc(C2C(C#N)=C(N)OC(c3c[nH]c4ccccc34)=C2C#N)cc1 (stereo not drawn) = 60.2
• Cc1ccccc1C1C(C#N)=C(N)OC(c2c[nH]c3ccccc23)=C1C#N (stereo not drawn) = 32.5
• COc1cc(Br)c(C2C(C#N)=C(N)OC(c3c[nH]c4ccccc34)=C2C#N)cc1OC (stereo not drawn) = 64.4
• N#CC1=C(N)OC(c2c[nH]c3ccccc23)=C(C#N)C1c1ccccc1 (stereo not drawn) = 51.2
• Cc1ccc(C2C(C#N)=C(N)OC(c3c[nH]c4ccccc34)=C2C#N)cc1 (stereo not drawn) = 30.4
• N#CC1=C(N)OC(c2c[nH]c3ccccc23)=C(C#N)C1c1ccc(Br)cc1 (stereo not drawn) = 57.8
• COc1ccc(C2C(C#N)=C(N)OC(c3c[nH]c4ccccc34)=C2C#N)cc1OC (stereo not drawn) = 62.9
• N#CC1=C(N)OC(c2c[nH]c3ccccc23)=C(C#N)C1c1ccc(F)cc1 (stereo not drawn) = 36.5
• N#CC1=C(N)OC(c2c[nH]c3ccccc23)=C(C#N)C1c1cccc2ccccc12 (stereo not drawn) = 26.4
• N#CC1=C(N)OC(c2c[nH]c3ccccc23)=C(C#N)C1c1cc(Br)c2c(c1)OCO2 (stereo not drawn) = 22.8
• O=C1O[C@H]([C@@H](O)CO)C(O)=C1O = 85.3
• CN(C)c1ccc(C2C(C#N)=C(N)OC(c3c[nH]c4ccccc34)=C2C#N)cc1 (stereo not drawn) = 75.7

---

test: Antioxidant activity assessed as ABTS radical scavenging activity at 200 ug/ml; type: functional; settings: at 200 µg/mL
measure_name: Activity (%)

* COc1ccc(C2C(C#N)=C(N)OC(c3c[nH]c4ccccc34)=C2C#N)cc1OC (stereo not drawn) | 26.1
* O=C1O[C@H]([C@@H](O)CO)C(O)=C1O | 31.5
* N#CC1=C(N)OC(c2c[nH]c3ccccc23)=C(C#N)C1c1ccc(Br)cc1 (stereo not drawn) | 10.6
* N#CC1=C(N)OC(c2c[nH]c3ccccc23)=C(C#N)C1c1cc(Br)c2c(c1)OCO2 (stereo not drawn) | 10
* CN(C)c1ccc(C2C(C#N)=C(N)OC(c3c[nH]c4ccccc34)=C2C#N)cc1 (stereo not drawn) | 20.5
* N#CC1=C(N)OC(c2c[nH]c3ccccc23)=C(C#N)C1c1cccc2ccccc12 (stereo not drawn) | 7.7
* N#CC1=C(N)OC(c2c[nH]c3ccccc23)=C(C#N)C1c1ccccc1Cl (stereo not drawn) | 14.5
* Cc1ccccc1C1C(C#N)=C(N)OC(c2c[nH]c3ccccc23)=C1C#N (stereo not drawn) | 21.4
* COc1ccc(C2C(C#N)=C(N)OC(c3c[nH]c4ccccc34)=C2C#N)cc1 (stereo not drawn) | 26.4
* N#CC1=C(N)OC(c2c[nH]c3ccccc23)=C(C#N)C1c1ccccc1 (stereo not drawn) | 24.5
* Cc1ccc(C2C(C#N)=C(N)OC(c3c[nH]c4ccccc34)=C2C#N)cc1 (stereo not drawn) | 6.2
* COc1cc(Br)c(C2C(C#N)=C(N)OC(c3c[nH]c4ccccc34)=C2C#N)cc1OC (stereo not drawn) | 24.2
* N#CC1=C(N)OC(c2c[nH]c3ccccc23)=C(C#N)C1c1ccc(F)cc1 (stereo not drawn) | 22.4

---

test system: Bacillus cereus; assay: microbe, parasite or virus in culture; assay type: functional; conditions: ATCC 11778, 24 h
Description: Antimicrobial activity against Bacillus cereus ATCC 11778 after 24 hrs by agar streak dilution method
# MIC per entry
measure_name: MIC (µg/mL)

• N#CC1=C(N)OC(c2c[nH]c3ccccc23)=C(C#N)C1c1cccc([N+](=O)[O-])c1 (centres undefined) = 35.4
• N#CC1=C(N)OC(c2c[nH]c3ccccc23)=C(C#N)C1c1ccccc1Cl (centres undefined) = 16.4
• N#CC1=C(N)OC(c2c[nH]c3ccccc23)=C(C#N)C1c1cccc(Br)c1 (centres undefined) = 24
• N#CC1=C(N)OC(c2c[nH]c3ccccc23)=C(C#N)C1c1ccc2ccccc2c1 (centres undefined) = 23.3
• N#CC1=C(N)OC(c2c[nH]c3ccccc23)=C(C#N)C1c1ccc(Br)cc1 (centres undefined) = 28
• Cc1ccccc1C1C(C#N)=C(N)OC(c2c[nH]c3ccccc23)=C1C#N (centres undefined) = 27.8
• COc1cc(Br)c(C2C(C#N)=C(N)OC(c3c[nH]c4ccccc34)=C2C#N)cc1OC (centres undefined) = 24.5
• CN(C)c1ccc(C2C(C#N)=C(N)OC(c3c[nH]c4ccccc34)=C2C#N)cc1 (centres undefined) = 25.6
• N#CC1=C(N)OC(c2c[nH]c3ccccc23)=C(C#N)C1c1cc(Br)c2c(c1)OCO2 (centres undefined) = 28.7

---

# IC50 per entry
tested on: Radical scavenging activity; assay: Antioxidant activity assessed as DPPH radical scavenging activity; assay type: functional
measure_name: IC50

• N#CC1=C(N)OC(c2c[nH]c3ccccc23)=C(C#N)C1c1cccc2ccccc12 (stereo not given) = 1599.62 µg/mL
• COc1ccc(C2C(C#N)=C(N)OC(c3c[nH]c4ccccc34)=C2C#N)cc1 (stereo not given) = < 50 µg/mL
• COc1ccc(C2C(C#N)=C(N)OC(c3c[nH]c4ccccc34)=C2C#N)cc1OC (stereo not given) = < 50 µg/mL
• N#CC1=C(N)OC(c2c[nH]c3ccccc23)=C(C#N)C1c1cc(Br)c2c(c1)OCO2 (stereo not given) = 1779.24 µg/mL
• N#CC1=C(N)OC(c2c[nH]c3ccccc23)=C(C#N)C1c1ccc(F)cc1 (stereo not given) = 901.11 µg/mL
